Reference source for all entries: patent EP2687509A2

system: HeLa cells; experiment: MTT cytotoxicity assay, HeLa cells; format: cell-based; conditions: Homo sapiens, 48 h incubation, * = compound precipitated at 1 mM from cell cultures
pIC50: −log10 of the molar value.
Exercise: for every item that follows, state its recorded pIC50.

Look up and state reported pIC50 for CCOC(=O)C1CC2C(=O)CC1(C)C1C(=O)N(CCN(C)C)C(=O)C21 (stereo not drawn)
4.00

Assign pIC50 to the following record: CCOC(=O)C1CC2C(=O)CC1(C)C1C(=O)N(CCN3CCCCC3)C(=O)C21 (stereo not drawn)
< 3.00

For the molecule CCN(CC)CCN1C(=O)C2C(C1=O)C1(OC(C)=O)C=CC2(OC(C)=O)CC1 (stereo not drawn) , give its reported pIC50.
< 3.00

Given the molecule CC(C)COC12CCC(C(=O)C1)C1C(=O)N(CCN3CCOCC3)C(=O)C12 (stereo not drawn) , write its reported pIC50.
< 3.00

Supply reported pIC50 belonging to this molecule: CCC12C(=O)C(CC)(C(c3ccccc3)=C1c1ccccc1)C1C(=O)N(CCCN(C)C)C(=O)C12 (stereo not drawn)
< 3.00

Dear colleague, please send me the reported pIC50 for CC1=CC2(C)CC(C)(C)C1C1C(=O)N(CCCN(C)C)C(=O)C12 (stereo not drawn) when you can.
4.00

Respond only with pIC50 recorded for CC(=O)OC12C=CC(OC(C)=O)(CC1)C1C(=O)N(CCCN(C)C)C(=O)C12 (stereo not drawn)
< 3.00

Look up pIC50 of COC12C=CC(CC1)C1C(=O)N(CCN3CCOCC3)C(=O)C12 (stereo not drawn) and report it.
< 3.00

Give reported pIC50 value for CC(C)NCC(O)CN1C(=O)C2C(C1=O)C1(c3ccccc3)CC2(c2ccccc2)C(c2ccccc2)=C1c1ccccc1 (stereo not drawn)
6.00

###

system: HeLa cells; assay: MTT cytotoxicity assay, HeLa cells; assay type: cell-based; conditions: Homo sapiens, 48 h incubation, * = compound precipitated at 1 mM from cell cultures
Assignment: determine reported IC50 for the given molecules.

Kindly indicate its recorded IC50. Item: CCN(CC)CCN1C(=O)C2C3C(C)=CC(C)(CC3(C)C)C2C1=O (centres unmarked)
1000 µM

Supply measured IC50 of CCOC(=O)C1CC2C(=O)CC1(C)C1C(=O)N(CCN(CC)CC)C(=O)C21 (centres unmarked) in your reply.
> 1000 µM

Could you please provide reported IC50 for CC1=CC2(C)CC(C)(C)C1C1C(=O)N(CCN3CCOCC3)C(=O)C12 (centres unmarked) ? Thanks!
90 µM

Return value of IC50 for input CCOC(=O)C1CC2C(=O)CC1(C)C1C(=O)N(CCCN(C)C)C(=O)C21 (centres unmarked) , no commentary.
> 1000 µM

Look up IC50 of CC(=O)OC12C=CC(OC(C)=O)(CC1)C1C(=O)N(CCN3CCOCC3)C(=O)C12 (centres unmarked) and report it.
> 1000 µM

###

system: HUVEC cells; assay: MTT cytotoxicity assay, HUVEC cells; format: cell-based; conditions: Homo sapiens, 48 h incubation, * = compound precipitated at 1 mM from cell cultures
Lab note: cut-off is 4 µM. Strictly less in IC50 is y. Exactly 4 µM or more is n.

# check: IC50 < 4 µM for CCC12C(=O)C(CC)(C(c3ccccc3)=C1c1ccccc1)C1C(=O)N(CCCN(C)C)C(=O)C12 (stereo not shown) [a6]
n

Please let me know if CN(C)CCN1C(=O)C2C(C1=O)C1(c3ccccc3)CC2(c2ccccc2)C(c2ccccc2)=C1c1ccccc1 (stereo not shown) [a1] shows IC50 below 4 µM.
n

Please determine if CCC12C(=O)C(CC)(C(c3ccccc3)=C1c1ccccc1)C1C(=O)N(CCN3CCCCC3)C(=O)C12 (stereo not shown) [a5] is below 4 µM in terms of IC50.
n

Regarding CCOC(=O)C1CC2C(=O)CC1(C)C1C(=O)N(CCN(C)C)C(=O)C21 (stereo not shown) [c6] , kindly confirm whether its IC50 is beneath 4 µM.
n

For CCN(CC)CCN1C(=O)C2C(C1=O)C1(CC)C(=O)C2(CC)C(c2ccccc2)=C1c1ccccc1 (stereo not shown) [a4] , is the recorded IC50 below the cut-off of 4 µM?
n

Would you kindly verify if IC50 of CC(C)NCC(O)CN1C(=O)C2C(C1=O)C1(c3ccccc3)CC2(c2ccccc2)C(c2ccccc2)=C1c1ccccc1 (stereo not shown) [a9] is strictly less than 4 µM?
y

Check if IC50 falls below 4 µM for CC(C)NCC(O)CN1C(=O)C2C(C1=O)C1(C)C(=O)C2(C)C(c2ccccc2)=C1c1ccccc1 (stereo not shown) [a11] .
n

Say whether its IC50 is strictly beneath 4 µM. Entry: CN(C)CC(O)CN1C(=O)C2C(C1=O)C1(c3ccccc3)CC2(c2ccccc2)C(c2ccccc2)=C1c1ccccc1 (stereo not shown) [a10]
y

Please state whether IC50 is below 4 µM for CC1=CC2(C)CC(C)(C)C1C1C(=O)N(CCN(C)C)C(=O)C12 (stereo not shown) [b11]
n

Lab note: confirm whether the reported IC50 for this compound is below 4 µM, equality not counting. compound: CCC12C(=O)C(CC)(C(c3ccccc3)=C1c1ccccc1)C1C(=O)N(CCN(C)C)C(=O)C12 (stereo not shown) [a3]
n

I wonder whether CN(C)CC(O)CN1C(=O)C2C(C1=O)C1(c3ccccc3)C(=O)C2(c2ccccc2)C(c2ccccc2)=C1c1ccccc1 (stereo not shown) [a14] has IC50 below 4 µM. Can you tell?
y

Quick check: does CC1=CC2(C)CC(C)(C)C1C1C(=O)N(CCN3CCOCC3)C(=O)C12 (stereo not shown) [b13] have IC50 under 4 µM?
n

Quick check: does CC1=CC2(C)CC(C)(C)C1C1C(=O)N(CCCN(C)C)C(=O)C12 (stereo not shown) [b15] have IC50 under 4 µM?
n

is_below(IC50, 4 µM) for CN(C)CC(O)CN1C(=O)C2C(C1=O)C1(C)C(=O)C2(C)C(c2ccccc2)=C1c1ccccc1 (stereo not shown) [a12] ?
n

Is 4 µM strictly greater than the compound's reported IC50? compound: CC(C)NCC(O)CN1C(=O)C2C(C1=O)C1(c3ccccc3)C(=O)C2(c2ccccc2)C(c2ccccc2)=C1c1ccccc1 (stereo not shown) [a13]
y
